Molecular target: CYP2C9 (Homo sapiens)
Assay: Radiometric CYP2C9 assay using [4′-3H]-diclofenac: formation of [3H]-H2O in pooled human liver microsomes
Entries annotated with measured IC50
recordedMetric: IC50 (µM)

compound | targetEntity | recordedMetric | numericReadout
Clc1ccc(COC(Cn2ccnc2)c2ccc(Cl)cc2Cl)c(Cl)c1 (stereo not shown) [Miconazole] | CYP2C9 (Homo sapiens) | IC50 | 0.2
COc1ccc2c(c1)c(CC(=O)O)c(C)n2C(=O)c1ccc(Cl)cc1 [Indomethacin] | CYP2C9 (Homo sapiens) | IC50 | 54.8
Cc1ccc(C)c(OCCCC(C)(C)C(=O)O)c1 [Gemfibrozil] | CYP2C9 (Homo sapiens) | IC50 | 27.7
COc1ccc2[nH]c([S+]([O-])Cc3ncc(C)c(OC)c3C)nc2c1 (stereo not shown) [Omeprazole] | CYP2C9 (Homo sapiens) | IC50 | 43.8
CCCCC1C(=O)N(c2ccccc2)N(c2ccccc2)C1=O [Phenylbutazone] | CYP2C9 (Homo sapiens) | IC50 | 41.4
COCC(=O)O[C@]1(CCN(C)CCCc2nc3ccccc3[nH]2)CCc2cc(F)ccc2[C@@H]1C(C)C [Mibefradil] | CYP2C9 (Homo sapiens) | IC50 | 40
CC(=O)[C@H]1CC[C@H]2[C@@H]3CCC4=CC(=O)CC[C@]4(C)[C@H]3CC[C@]12C [Progesterone] | CYP2C9 (Homo sapiens) | IC50 | 25.2

---

Biological target: UniProt:P11712
Assay: Radiometric CYP2C9 assay using [4′-3H]-diclofenac: formation of [3H]-H2O in pooled human liver microsomes
recordedMetric: Ratio (radiometric/conventional)

compound | numericReadout
Nc1ccc(S(=O)(=O)Nc2ccnn2-c2ccccc2)cc1 | 0.96
COc1ccc2c(c1)c(CC(=O)O)c(C)n2C(=O)c1ccc(Cl)cc1 | 0.96
COCC(=O)O[C@]1(CCN(C)CCCc2nc3ccccc3[nH]2)CCc2cc(F)ccc2[C@@H]1C(C)C | 0.69
CC(=O)[C@H]1CC[C@H]2[C@@H]3CCC4=CC(=O)CC[C@]4(C)[C@H]3CC[C@]12C | 1.26
Clc1ccc(COC(Cn2ccnc2)c2ccc(Cl)cc2Cl)c(Cl)c1 (centres unmarked) | 1.54
Cc1ccc(C)c(OCCCC(C)(C)C(=O)O)c1 | 0.71
COc1ccc2[nH]c([S+]([O-])Cc3ncc(C)c(OC)c3C)nc2c1 (centres unmarked) | 1.04
CCCCC1C(=O)N(c2ccccc2)N(c2ccccc2)C1=O | 0.94

---

Target: CYP2C9 (Homo sapiens, UniProt P11712)
Sequence (P11712 whole entry): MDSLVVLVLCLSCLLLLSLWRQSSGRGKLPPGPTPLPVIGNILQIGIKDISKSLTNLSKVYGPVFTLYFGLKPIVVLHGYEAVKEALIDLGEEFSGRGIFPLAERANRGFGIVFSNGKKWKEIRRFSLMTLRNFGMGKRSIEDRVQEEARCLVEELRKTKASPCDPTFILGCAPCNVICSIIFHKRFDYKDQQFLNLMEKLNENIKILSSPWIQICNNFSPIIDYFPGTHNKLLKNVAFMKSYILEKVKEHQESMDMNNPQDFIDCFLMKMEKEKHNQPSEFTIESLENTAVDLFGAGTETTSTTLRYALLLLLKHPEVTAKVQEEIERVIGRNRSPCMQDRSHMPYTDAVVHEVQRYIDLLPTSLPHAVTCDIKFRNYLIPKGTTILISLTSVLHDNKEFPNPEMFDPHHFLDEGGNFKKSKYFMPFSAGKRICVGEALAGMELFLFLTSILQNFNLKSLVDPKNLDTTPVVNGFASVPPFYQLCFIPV
Assay: in vitro
Conditions: human, microsomes, pH 7.6

smilesNotation | Km at 10 min (µM)
O=C(O)Cc1ccccc1Nc1c(Cl)cccc1Cl | 6.2

---

Biological target: UniProtKB P11712
Test: in vitro
pIC50: −log10 of the molar value.
Entries annotated with measured pIC50

compound | pIC50
Cc1ccc(C)c(OCCCC(C)(C)C(=O)O)c1 | 4.41
Clc1ccc(COC(Cn2ccnc2)c2ccc(Cl)cc2Cl)c(Cl)c1 (stereo not shown) | 6.89
COc1ccc2c(c1)c(CC(=O)O)c(C)n2C(=O)c1ccc(Cl)cc1 | 4.24
COc1ccc2[nH]c([S+]([O-])Cc3ncc(C)c(OC)c3C)nc2c1 (stereo not shown) | 4.37
COCC(=O)O[C@]1(CCN(C)CCCc2nc3ccccc3[nH]2)CCc2cc(F)ccc2[C@@H]1C(C)C | 4.24
CC(=O)[C@H]1CC[C@H]2[C@@H]3CCC4=CC(=O)CC[C@]4(C)[C@H]3CC[C@]12C | 4.70
CCCCC1C(=O)N(c2ccccc2)N(c2ccccc2)C1=O | 4.35

---

Biological target: CYP2C9 (Homo sapiens)
Test: in vitro
Conditions: read-out: IC50 (μM) Conventional; HLM, formation rate of 4′-hydroxydiclofenac by LC-MS/MS, same reaction mixture; mean ± SEM, n = 2
recordedMetric: IC50

compound | targetEntity | result
CC(=O)C[C@@H](c1ccccc1)c1c(O)c2ccccc2oc1=O [S-Warfarin] | CYP2C9 (Homo sapiens) | 8.7 µM

---

Target: CYP2C9 (Homo sapiens)
Assay: Radiometric CYP2C9 assay using [4′-3H]-diclofenac: formation of [3H]-H2O in pooled human liver microsomes
Settings: read-out: IC50 (μM) radiometric; HLM, formation rate of [3H]-H2O from [4′-3H]-diclofenac; mean ± SEM, n = 2
From the text: Radiometric CYP2C9 assays using [4′-^3H]-diclofenac. […] (Woburn, Mass.). […] Pooled void volume and water wash were transferred into scintillation vials and counted in a beta-scintillation counter. Alternatively, aliquots were counted in 24- or 96-well scintillation plates using a TOPCOUNT scintillation counter (Packard, Perkin Elmer, Boston, Mass.). […]
recordedMetric: IC50 (µM)

smilesNotation | unitsSymbol | numericReadout
CC(=O)C[C@@H](c1ccccc1)c1c(O)c2ccccc2oc1=O | µM | 14.6
